Where these numbers come from: patent US12606541B2

Molecular target: His6-TEV-PPARγ-(234-505) (Homo sapiens, UniProt P37231)
Construct: The His6-TEV-PPARγ-(234-505) protein for assay was expressed and purified; TEV cleavage site (N); made in house
Sequence (P37231 234-505): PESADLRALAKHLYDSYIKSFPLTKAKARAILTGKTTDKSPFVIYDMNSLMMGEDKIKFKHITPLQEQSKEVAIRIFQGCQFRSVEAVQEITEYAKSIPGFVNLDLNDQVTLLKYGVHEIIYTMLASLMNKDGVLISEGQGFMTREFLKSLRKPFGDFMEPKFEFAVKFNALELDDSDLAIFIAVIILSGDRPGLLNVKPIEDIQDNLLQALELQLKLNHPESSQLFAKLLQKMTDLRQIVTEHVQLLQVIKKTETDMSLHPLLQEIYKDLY
Assay: TR-FRET Assay to Measure Co-R Peptide Recruitment to PPARγ
Assay type: biochemical
Settings: Co-R peptide (SMRT-ID2) recruitment; top final concentration 20 μM; read-out: TR-FRET i-Ag; AC50
# AC50 per record follows
Report only the number, with the unit nM understood.

Known AC50 results, listed for orientation:
COc1cc(-c2cc(C(=O)N3CCC(C(=O)NCC(F)(F)c4ccccc4)CC3)n[nH]2)c(Cl)cn1 [Example 149] :: 49.3
COc1cc(-c2cc(C(=O)N3CC[C@H](C(=O)Nc4cnn5c4CC(O)CC5)CC34CC4)n[nH]2)c(F)cn1 (single isomer, unassigned) [Example 514-B] :: 59.6

Asked: Param item = COc1cc(-c2cc(C(=O)N3CC[C@H](C(=O)NCc4ncc(F)cc4OC)CC34CC4)n[nH]2)c(F)cn1 [Example 389] ; retrieve measured AC50.
Given back: 10.3
